# System: baculovirus-expressed ALK (Homo sapiens)
# Construct: host or cells: baculovirus expression system
# Sequence (Q9UM73 19-1620): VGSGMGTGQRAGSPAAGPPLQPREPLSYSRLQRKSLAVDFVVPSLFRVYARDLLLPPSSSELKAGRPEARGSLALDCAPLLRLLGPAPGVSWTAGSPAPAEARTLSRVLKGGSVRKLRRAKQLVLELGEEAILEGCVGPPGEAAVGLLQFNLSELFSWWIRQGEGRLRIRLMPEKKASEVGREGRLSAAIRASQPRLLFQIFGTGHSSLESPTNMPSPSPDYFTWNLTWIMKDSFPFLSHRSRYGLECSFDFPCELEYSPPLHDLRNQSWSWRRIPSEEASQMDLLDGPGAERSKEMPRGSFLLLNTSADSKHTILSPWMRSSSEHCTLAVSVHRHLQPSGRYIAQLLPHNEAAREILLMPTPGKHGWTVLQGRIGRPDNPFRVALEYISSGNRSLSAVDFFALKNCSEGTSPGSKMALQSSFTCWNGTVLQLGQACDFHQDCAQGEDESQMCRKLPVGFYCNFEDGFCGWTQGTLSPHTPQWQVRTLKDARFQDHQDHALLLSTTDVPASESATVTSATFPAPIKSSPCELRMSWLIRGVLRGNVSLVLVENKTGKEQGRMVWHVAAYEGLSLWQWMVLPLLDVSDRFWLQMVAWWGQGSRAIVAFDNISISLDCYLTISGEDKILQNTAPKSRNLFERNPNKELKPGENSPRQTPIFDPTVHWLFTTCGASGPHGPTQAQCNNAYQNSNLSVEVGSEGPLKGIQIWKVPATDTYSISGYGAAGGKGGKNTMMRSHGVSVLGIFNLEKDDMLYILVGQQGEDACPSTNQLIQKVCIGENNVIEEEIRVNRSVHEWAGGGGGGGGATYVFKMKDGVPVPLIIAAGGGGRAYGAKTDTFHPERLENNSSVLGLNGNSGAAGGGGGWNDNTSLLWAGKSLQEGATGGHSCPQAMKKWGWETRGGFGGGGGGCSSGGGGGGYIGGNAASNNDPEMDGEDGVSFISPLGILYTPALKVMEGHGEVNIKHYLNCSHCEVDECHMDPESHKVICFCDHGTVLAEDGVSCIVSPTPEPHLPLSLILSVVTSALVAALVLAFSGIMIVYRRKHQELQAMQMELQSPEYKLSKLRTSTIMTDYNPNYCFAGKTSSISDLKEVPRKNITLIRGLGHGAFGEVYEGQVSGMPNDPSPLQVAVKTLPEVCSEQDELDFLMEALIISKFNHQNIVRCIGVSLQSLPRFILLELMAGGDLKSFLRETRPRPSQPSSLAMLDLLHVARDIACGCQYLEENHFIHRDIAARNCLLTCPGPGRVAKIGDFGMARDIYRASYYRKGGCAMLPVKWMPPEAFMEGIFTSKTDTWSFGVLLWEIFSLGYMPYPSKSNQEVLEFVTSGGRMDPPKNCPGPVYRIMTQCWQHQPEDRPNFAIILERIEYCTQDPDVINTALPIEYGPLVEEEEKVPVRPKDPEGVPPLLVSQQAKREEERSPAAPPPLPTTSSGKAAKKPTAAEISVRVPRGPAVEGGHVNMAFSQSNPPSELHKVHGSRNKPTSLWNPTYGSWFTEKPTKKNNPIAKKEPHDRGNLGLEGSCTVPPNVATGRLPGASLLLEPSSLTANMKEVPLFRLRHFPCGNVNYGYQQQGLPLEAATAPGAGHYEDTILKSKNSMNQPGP
# Experimental details: ALK Kinase Assay (ELISA-type, time-resolved fluorescence)
# Type: biochemical
# Condition set: 1 μM ATP (Km level), 30 ng/ml ALK, 37° C., 15 minutes; read-out: ALK Activity (ALK kinase inhibition, IC50 class)
pIC50: −log10 of the molar value.
Value kind: pIC50

Molecule: COc1cc2c(cc1Nc1ncc(Cl)c(Nc3cccc(N4CCOCC4)c3)n1)CCN(CC(=O)N(C)C)CC2 [Example 1145]
pIC50: > 7.00

Molecule: C#CCN(C)C(=O)c1ccccc1Nc1nc(Nc2ccc3c(c2)CCCC(=O)N3C)ncc1Cl [Example 1390]
pIC50: > 7.00

Molecule: COc1cc2c(cc1Nc1ncc(Cl)c(Nc3ccccc3S(=O)(=O)N3CCCC3)n1)CCC(NCCO)CC2 (stereo not drawn) [Example 1087]
pIC50: > 7.00

Molecule: COCCN1CCc2cc(Nc3ncc(Cl)c(Nc4ccc(C(N)=O)cc4OC)n3)c(OC)cc2CC1 [Example 1156]
pIC50: > 7.00

Molecule: COc1cc2c(cc1Nc1ncc(Cl)c(Nc3cc(C(N)=O)ccc3OC)n1)CCN(CCS(C)(=O)=O)CC2 [Example 1137]
pIC50: 6.00 to 7.00

Query: Could you share which pIC50 value was measured for CCN1C(=O)[C@H](NC(=O)C2CC2)CCc2c1ccc(Nc1ncc(Cl)c(N[C@H]3[C@@H](C(N)=O)[C@@H]4C=C[C@H]3C4)n1)c2OC (single isomer, unassigned) [Example 1357] ?
Response: > 7.00

Query: Could you share which pIC50 value was measured for CN1C(=O)OCCc2cc(Nc3ncc(Cl)c(Nc4c(F)cccc4OC4CCOC4)n3)ccc21 (stereo not drawn) [Example 1300] ?
Response: 6.00 to 7.00

Query: Could you share which pIC50 value was measured for CCNC(=O)c1cccc(F)c1Nc1nc(Nc2ccc3c(c2)CCN(CC(=O)NC)CC3)ncc1Cl [Example 1372] ?
Response: > 7.00

Query: Could you share which pIC50 value was measured for CNC(=O)c1ccccc1Nc1nc(Nc2cc3c(cc2OC)CC(=O)N(CCCN2CCOCC2)CC3)ncc1Cl [Example 1126] ?
Response: > 7.00

Query: Could you share which pIC50 value was measured for CNC(=O)c1cc(-c2cnn(C)c2)cc(F)c1Nc1nc(Nc2ccc3c(c2)NC(=O)CCC3)ncc1Cl [Example 1422] ?
Response: 6.00 to 7.00

Query: Could you share which pIC50 value was measured for CNC(=O)CN1CCc2cc(Nc3ncc(Cl)c(Nc4cc(Cl)ccc4OC)n3)c(OC)cc2CC1 [Example 1118] ?
Response: > 7.00

Query: Could you share which pIC50 value was measured for CNC(=O)c1ccc(NC(C)=O)cc1Nc1nc(Nc2ccc3c(c2)C(C)(C)CCC(=O)N3)ncc1Cl [Example 1244] ?
Response: 5.00 to 6.00

----------
# System: c-Met (cytoplasmic domain) (Homo sapiens, UniProt P08581)
# Construct: 10 ng/mL c-Met (cytoplasmic domain, Invitrogen Corporation #PV3143); purchased Invitrogen Corporation PV3143
# Sequence (P08581 956-1390 limits assumed): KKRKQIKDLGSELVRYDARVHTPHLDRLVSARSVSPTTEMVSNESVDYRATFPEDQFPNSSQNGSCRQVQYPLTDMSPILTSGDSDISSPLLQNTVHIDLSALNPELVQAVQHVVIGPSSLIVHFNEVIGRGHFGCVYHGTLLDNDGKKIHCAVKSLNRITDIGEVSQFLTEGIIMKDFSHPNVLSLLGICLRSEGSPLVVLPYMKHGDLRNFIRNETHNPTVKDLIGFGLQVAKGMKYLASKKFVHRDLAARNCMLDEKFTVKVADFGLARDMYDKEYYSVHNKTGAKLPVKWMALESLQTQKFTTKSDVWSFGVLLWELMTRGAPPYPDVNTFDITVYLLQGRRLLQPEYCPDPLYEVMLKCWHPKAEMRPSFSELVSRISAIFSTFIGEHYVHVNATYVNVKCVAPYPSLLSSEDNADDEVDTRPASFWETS
# Experimental details: c-Met Kinase Assay (same methods as for ALK, with modifications)
# Type: biochemical
# Condition set: c-Met kinase inhibition, 1 μM ATP; read-out: cMet Activity
Value kind: IC50

Smi: CCN1C(=O)CN(C(C)=O)Cc2ccc(Nc3ncc(Cl)c(Nc4ccccc4C(=O)NC)n3)cc21
Test value: < 100 nM
//
Smi: CC1(C)CCC(=O)Nc2cc(Nc3ncc(Cl)c(Nc4ccccc4OCC#N)n3)ccc21
Test value: 100 to 1000 nM

Query: Could you share which IC50 value was measured for CNC(=O)c1ccsc1Nc1nc(Nc2ccc3c(c2)CCN(CCOC)CC3)ncc1Cl ?
Response: 100 to 1000 nM

Query: Could you share which IC50 value was measured for C#CCNC(=O)c1sccc1Nc1nc(Nc2ccc3c(c2)CCOC(=O)N3C)ncc1Cl ?
Response: < 100 nM

Query: Could you share which IC50 value was measured for COc1cc2c(cc1Nc1ncc(Cl)c(N[C@H]3[C@@H](C(N)=O)[C@@H]4C=C[C@H]3C4)n1)CCN(CC(=O)N1CCOCC1)CC2 ?
Response: > 10000 nM

----------
Below, each of the molecules is paired with its reported pIC50 value.
# System: c-Met (cytoplasmic domain) (Homo sapiens, UniProt P08581)
# Construct: 10 ng/mL c-Met (cytoplasmic domain, Invitrogen Corporation #PV3143); purchased Invitrogen Corporation PV3143
# Experimental details: c-Met Kinase Assay (same methods as for ALK, with modifications)
# Format: biochemical
# Condition set: 1 μM ATP (Km level), 10 ng/mL c-Met; read-out: cMet Activity (c-Met kinase inhibition, IC50 class)
pIC50: −log10 of the molar value.

Worked cases, pIC50 given:
Molecule: CNC(=O)CN1CCc2cc(Nc3ncc(Cl)c(N[C@H]4[C@@H](C(N)=O)[C@@H]5C=C[C@H]4C5)n3)c(OC)cc2CC1 [Example 1124]
System: c-Met (cytoplasmic domain) (Homo sapiens, UniProt P08581)
pIC50: < 5.00
--
Molecule: CN1C(=O)CCCc2cc(Nc3ncc(Cl)c(Nc4ccc5[nH]c(C(F)(F)F)nc5c4)n3)ccc21 [Example 1016]
System: c-Met (cytoplasmic domain) (Homo sapiens, UniProt P08581)
pIC50: 5.00 to 6.00
--
Molecule: COc1cc2c(cc1Nc1ncc(Cl)c(Nc3cc(C(N)=O)ccc3OC)n1)CCN(C(=O)CN(C)C)CC2 [Example 1139]
System: c-Met (cytoplasmic domain) (Homo sapiens, UniProt P08581)
pIC50: < 5.00
--
Molecule: CCN1C(=O)CCCc2ccc(Nc3ncc(Cl)c(Nc4cccc(CCC#N)c4)n3)cc21 [Example 1223]
System: c-Met (cytoplasmic domain) (Homo sapiens, UniProt P08581)
pIC50: 6.00 to 7.00
--
Molecule: COCCN1CCc2ccc(Nc3ncc(Cl)c(N[C@H]4CC[C@@H](NS(C)(=O)=O)CC4)n3)cc2CC1 [Example 1381]
System: c-Met (cytoplasmic domain) (Homo sapiens, UniProt P08581)
pIC50: 5.00 to 6.00
--
Molecule: CCN1CCc2ccc(OC)c(Nc3ncc(Cl)c(Nc4ccc(N5CCOCC5)cc4OC)n3)c2CC1=O [Example 1133]
System: c-Met (cytoplasmic domain) (Homo sapiens, UniProt P08581)
pIC50: < 5.00

Kindly review the next molecule as well.
Query: Could you share which pIC50 value was measured for C#CCNC(=O)c1cccc(F)c1Nc1nc(Nc2ccc3c(c2)OCCCN3C(=O)OCCCN(C)C)ncc1Cl [Example 1427] ?
Response: 6.00 to 7.00

----------
# System: c-Met (cytoplasmic domain) (Homo sapiens, UniProt P08581)
# Construct: 10 ng/mL c-Met (cytoplasmic domain, Invitrogen Corporation #PV3143); purchased Invitrogen Corporation PV3143
# Experimental details: c-Met Kinase Assay (same methods as for ALK, with modifications)
# Type: biochemical
# Condition set: 1 μM ATP (Km level); read-out: cMet Activity (c-Met Kinase Inhibition, IC50)
pIC50: −log10 of the molar value.
Below, each of the molecules is paired with its reported pIC50 value.

Worked cases, pIC50 given:
Smi: CNC(=O)c1ccccc1Nc1nc(Nc2cccc3c2N(C)CCNC3=O)ncc1Cl
pIC50: < 5.00
//
Smi: CCN1CCN(CC)c2cc(Nc3ncc(Cl)c(Nc4ccccc4OCC#N)n3)ccc2C1
pIC50: 6.00 to 7.00
//
Smi: CC1(C)CCC(=O)Nc2ccc(Nc3ncc(Cl)c(Nc4ccccc4-c4nccs4)n3)cc21
pIC50: < 5.00

Kindly review the next molecule as well.
Query: Could you share which pIC50 value was measured for COCC(COC)N1CCc2cc(Nc3ncc(Cl)c(Nc4ccccc4S(=O)(=O)N4CCCC4)n3)c(OC)cc2CC1 ?
Response: 5.00 to 6.00

----------
# System: c-Met (cytoplasmic domain) (Homo sapiens)
# Construct: 10 ng/mL c-Met (cytoplasmic domain, Invitrogen Corporation #PV3143); purchased Invitrogen Corporation PV3143
# Experimental details: c-Met Kinase Assay (same methods as for ALK, with modifications)
# Assay type: biochemical
# Condition set: 1 μM ATP (Km level); read-out: cMet Activity (c-Met Kinase Inhibition, IC50)
Value kind: IC50

Worked cases, IC50 given:
Compound: COc1cccnc1-c1ccccc1Nc1nc(Nc2ccc3c(c2)C(C)(C)CCC(=O)N3)ncc1Cl [Example 989]
IC50: 0.1 to 1 µM
//
Compound: COc1cc2c(cc1Nc1ncc(Cl)c(Nc3ccc(N4CCN(C)CC4)c(OC)c3)n1)CCN(CC(=O)N(C)C)CC2 [Example 804]
IC50: > 10 µM
//
Compound: COc1cc2c(cc1Nc1ncc(Cl)c(Nc3ccccc3-n3cccn3)n1)CCN(CC(F)F)CC2 [Example 823]
IC50: > 10 µM
//
Compound: CN1CCN(c2ccc(Nc3nc(Nc4ccc5c(c4)C(C)(C)CCC(=O)N5)ncc3Cl)c(-n3cccn3)c2)CC1 [Example 628]
IC50: 1 to 10 µM
//
Compound: COc1cc2c(cc1Nc1ncc(Cl)c(Nc3ccc(N4CCN(C)CC4)cc3OC)n1)CCN(CC(N)=O)CC2 [Example 807]
IC50: > 10 µM
//
Compound: CNC(=O)c1cc(OC)ccc1Nc1nc(Nc2cc3c(cc2OC)CCN(CCOC)CC3)ncc1Cl [Example 621]
IC50: 1 to 10 µM

Kindly review the next compound as well.
Query: Param readout = IC50; param system = c-Met (cytoplasmic domain) (Homo sapiens); param query = COc1ccc(Nc2nc(Nc3cc4c(cc3OC)CCN(CC3COCCO3)CC4)ncc2Cl)c(-n2cccn2)c1 (stereo not shown) [Example 636] ; response: value
Response: > 10 µM
